System: Lolium rigidum (LOLRI)
Assay: Pre-emergence herbicidal action against LOLRI
Type: in vivo
Details: dosage 80 g/ha
Source text: Seeds of monocotyledonous and dicotyledonous weed plants and crop plants are placed in plastic or organic planting pots and covered with soil. […] After about 3 weeks, the effect of the preparations is scored visually in comparison with untreated controls as percentages. […]
Pre-emergence action against LOLRI in % for assorted compounds
endpoint-label: Pre-emergence action against LOLRI in %

>>> df
                                   compound  reported_measurement
0  CCOC(=O)CNC(=O)COc1nn(-c2ncccc2F)c(-c2ccc(OC)nc2)c1Br [Example I-48]                  100%
1  CCOC(=O)[C@@H](C)Oc1nn(-c2nc(F)ccc2F)c(-c2cncc(F)c2)c1Br [Example I-388]                   80%
2  COC(=O)C(C)COC(=O)COc1nn(-c2ccccn2)c(-c2cncc(F)c2)c1Cl (stereo not shown) [Example I-221]                   80%
3  COC(=O)[C@@H](C)Oc1nn(-c2ccccn2)c(-c2cncc(F)c2)c1Cl [Example I-189]                  100%

* * *

Test system: Alopecurus myosuroides (ALOMY)
Assay: Post-emergence herbicidal action against ALOMY
Assay type: in vivo
Conditions: 320 g/ha, visual rating about 3 weeks after treatment vs untreated controls (100% = plants have died, 0% = like control plants)
endpoint-label: Post-emergence action against ALOMY in % (%)

                                   compound  unit_label  reported_measurement
0  CCOC(=O)CSc1nn(-c2ccccn2)c(-c2cncc(F)c2)c1C1CC1 [Example I-156]           %                    80
1  Cc1cccnc1-n1nc(OCC(=O)O)c(Br)c1-c1cncc(F)c1 [Example I-204]           %                    90
2  CCOC(=O)COc1nn(-c2ncccc2C)c(-c2cncc(F)c2)c1Cl [Example I-181]           %                    90
3  Cc1cccnc1-n1nc(OCC(=O)O)c(Cl)c1-c1cncc(F)c1 [Example I-182]           %                    80
4  COC(=O)[C@@H](C)Oc1nn(-c2ncccc2F)c(-c2cncc(F)c2)c1I [Example I-197]           %                    90
5  CCOC(=O)COc1nn(-c2cccnc2C)c(-c2cncc(F)c2)c1Br [II-45]           %                    90
6  O=C(O)COc1nn(-c2ccnc(Cl)c2)c(-c2ccc(F)nc2)c1Br [III-23]           %                   100

* * *

Post-emergence action against ORYSA in % for assorted molecules
Tested on: Oryza sativa (ORYSA)
Assay type: in vivo
Settings: crop plant compatibility, 20 g/ha, effect vs untreated controls
endpoint-label: Post-emergence action against ORYSA in % (%)

>>> df
                                    molecule  unit_label  reported_measurement
 0  CCOC(=O)[C@@H](C)Oc1nn(-c2ncccc2F)c(-c2cncc(F)c2)c1Cl           %                     0
 1  COC(=O)[C@@H](C)Oc1nn(-c2ncccc2F)c(-c2cncc(F)c2)c1I           %                     0
 2  CCOC(=O)COc1nn(-c2ncccc2F)c(-c2ccc(F)nc2)c1C(F)(F)F           %                     0
 3  COC(=O)COc1nn(-c2ncccc2F)c(-c2ccnc(F)c2)c1Br           %                     0
 4  O=C(COc1nn(-c2ccccn2)c(-c2ccc(F)nc2)c1Br)OCC1CCOC1 (stereo not shown)           %                     0
 5  COC(=O)CCOC(=O)COc1nn(-c2ccccn2)c(-c2cncc(F)c2)c1C1CC1           %                    10
 6  COC(=O)[C@H](C)COC(=O)COc1nn(-c2ccccn2)c(-c2cncc(F)c2)c1Cl           %                     0
 7  CCOC(=O)COc1nn(-c2ncccc2C)c(-c2cncc(F)c2)c1Cl           %                     0
 8  COC(=O)COc1nn(-c2ncccc2C)c(-c2cncc(F)c2)c1Br           %                     0
 9  COC(=O)[C@@H](C)Oc1nn(-c2cccnc2F)c(-c2ccc(F)nc2)c1Br           %                     0
10  C[C@@H](Oc1nn(-c2ccccn2)c(-c2ccc(F)nc2)c1Br)C(=O)O           %                    10
11  COC(=O)CCOC(=O)COc1nn(-c2ccccn2)c(-c2cncc(F)c2)c1Br           %                     0
12  COC(=O)[C@@H](C)Oc1nn(-c2ccccn2)c(-c2ccc(F)nc2)c1Br           %                    10
13  COC(=O)[C@H](C)COC(=O)COc1nn(-c2ccccn2)c(-c2ccc(F)nc2)c1Br           %                     0
14  CCOC(=O)COc1nn(-c2ncccc2F)c(-c2ccc(F)nc2)c1Br [Example I-39]           %                     0
15  CCOC(=O)COc1nn(-c2cccnc2C)c(-c2cncc(F)c2)c1Br           %                     0
16  N#CCOC(=O)COc1nn(-c2ncccc2F)c(-c2ccc(F)nc2)c1C1CC1           %                    10
17  CCOC(=O)COc1nn(-c2ncccc2Cl)c(-c2ccc(F)nc2)c1Br           %                     0
18  CCOC(=O)[C@@H](C)Oc1nn(-c2nc(F)ccc2F)c(-c2cncc(F)c2)c1C1CC1           %                     0
